# System: HepG2 cells
# assay details: HepG2 cell viability under serum-free conditions (MTS)
# Type: cell-based
# study conditions: Homo sapiens, HepG2, 72 h; 5 μM, 3 days, DMEM without FBS; read-out: Average Viability (% Inhibition, n = 3)
We begin with a simple list: items and their reported cytotoxicity at 5 µM.
API: value field is a number in %; no unit string.

Sample records with cytotoxicity at 5 µM:
molecule_smiles=Cc1cnccc1-c1nc(-c2ccc(NS(=O)(=O)C(F)(F)F)cc2Cl)cs1 system_name="HepG2 cells" assay_endpoint="cytotoxicity at 5 µM" reported_result=27
molecule_smiles=O=S(=O)(Nc1ccc(-c2csc(-c3ccnc4ccccc34)n2)c(Cl)c1)C(F)(F)F system_name="HepG2 cells" assay_endpoint="cytotoxicity at 5 µM" reported_result=84

Form: compound = O=S(=O)(Nc1ccc(-c2csc(-c3ccccc3CO)n2)c(Cl)c1)C(F)(F)F ; cytotoxicity at 5 µM = 18

Form: compound = O=S(=O)(Nc1ccc(-c2csc(-c3ccc(F)cc3CN3CCCC3)n2)c(Cl)c1)C(F)(F)F ; cytotoxicity at 5 µM = 4

Form: compound = O=S(=O)(Nc1ccc(-c2csc(-c3ccnc(N4CCCCC4)c3)n2)c(Cl)c1)C(F)(F)F ; cytotoxicity at 5 µM = 93

Form: compound = COc1ccc(-c2nc(-c3ccc(NS(=O)(=O)C(F)(F)F)cc3Cl)cs2)cc1OC ; cytotoxicity at 5 µM = 74

Form: compound = O=S(=O)(Nc1ccc(-c2csc(-c3csc4ccccc34)n2)c(Cl)c1)C(F)(F)F ; cytotoxicity at 5 µM = 99

Form: compound = O=S(=O)(Nc1ccc(-c2csc(-c3cccc(CO)c3)n2)c(Cl)c1)C(F)(F)F ; cytotoxicity at 5 µM = 0

* * *

# assay details: PK parameters for representative compounds (i.v. and p.o.), Table 4
# study conditions: in vivo, po; p.o. @ 10 mg/kg
assay endpoint: AUC(0-t)
Write the quantity with the unit trailing the number.

Form: compound = CC(C)(C)c1cc(-c2nc(-c3ccc(NS(=O)(=O)C(F)(F)F)cc3Cl)cs2)ccn1 ; AUC(0-t) = 302 µM·h

* * *

We begin with a simple list: items and their reported cytotoxicity at 20 µM.
# Test system: HepG2 cells
# assay details: HepG2 cell viability under serum-free conditions (MTS)
# Format: cell-based
# study conditions: Homo sapiens, HepG2, 72 h; 20 μM, 3 days, DMEM without FBS; read-out: Average Viability (% Inhibition, n = 3)
API: value field is a number in %; no unit string.

Sample records with cytotoxicity at 20 µM:
molecule="CCCc1cc(-c2nc(-c3ccc(NS(=O)(=O)C(F)(F)F)cc3)cs2)ccn1 [Compound 1]" measurement_unit=% reported_result=92.1
molecule="CCCc1cc(-c2nc(-c3cccc(NS(=O)(=O)C(F)(F)F)c3)cs2)ccn1 [Compound 2]" measurement_unit=% reported_result=80.5

Form: molecule = COc1cc(-c2csc(-c3ccnc(CC(C)C)c3)n2)ccc1NS(=O)(=O)C(F)(F)F [Compound 57] ; cytotoxicity at 20 µM = 56.4

* * *

# assay details: Short-term Paigen-diet NASH mouse model: Compound #37 plasma concentration 1 hour after final dose
# Type: in vivo
# study conditions: male, C57Bl/6J, mouse, plasma, oral; 5 mg/kg, day 21
assay endpoint: concentration at 1 h (µM)
API: value field is a number in µM; no unit string.

Form: compound = CC(C)Cc1cc(-c2nc(-c3ccc(NS(=O)(=O)C(F)(F)F)cc3Cl)cs2)ccn1 [Compound 37] ; concentration at 1 h = 20.4
